Test system: K562
Experiment: cell viability relative to vehicle control; higher = less cytotoxic;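 also: after 48 h exposure read by CellTiter-Glo luminescence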
Conditions: 10 µM; SRSF2 genotype: SRSF2 wt/wt
Where a name gives a salt, the structure may show the parent alone.

molecule	cell viability [%]
CN1CCCC(n2nc(Cc3ccc(Cl)cc3)c3ccccc3c2=O)CC1 (configuration not stated) [Azelastine hydrochloride (Astelin)]	92.6
CC[C@@]1(O)C(=O)OCc2c1cc1n(c2=O)Cc2cc3c(CN(C)C)c(O)ccc3nc2-1 [Topotecan HCl]	12.9
C/C1=C\CC[C@]23O[C@H]2[C@@H](OC3=O)c2c(C)coc2C1 [Linderane]	112
CC(=O)OCC(=O)[C@@]12N=C(C)O[C@@H]1C[C@H]1[C@@H]3CCC4=CC(=O)C=C[C@]4(C)[C@H]3[C@@H](O)C[C@@]12C [Deflazacort (Calcort)]	103
Cn1cc(C2=C(c3ccc(Cl)cc3Cl)C(=O)NC2=O)c2ccccc21	94.2
COc1ccc(-c2cc(=O)c3c(O)cc(OC4OC(CO)C(O)C(O)C4OC4OC(C)C(O)C(O)C4O)cc3o2)cc1O (configuration not stated) [Neodiosmin]	90.1
N=C1NC(=O)/C(=C/c2ccc(O)cc2)S1 [Mirin]	101
CCNC(=O)c1[nH]nc(-c2cc(Cl)c(O)cc2O)c1-c1ccc(OC)cc1	23.6
COc1cc(O)c2c(=O)c(O[C@@H]3O[C@H](CO)[C@@H](O)[C@H](O)[C@H]3O)c(-c3ccc(O[C@@H]4O[C@H](CO)[C@@H](O)[C@H](O)[C@H]4O)cc3)oc2c1 [Complanatuside]	106
COc1ccc2cc3[n+](cc2c1OC)CCc1cc2c(cc1-3)OCO2 [Berberine chloride]	65.3
CNC(=O)[C@H](Cc1ccccc1)NC(=O)[C@H](CC(C)C)[C@H](CSc1cccs1)C(=O)NO [Batimastat (BB-94)]	75
CN1c2cc(O)c(N=NC(N)=O)cc2CC1S(=O)(=O)O (configuration not stated) [Carbazochrome sodium sulfonate]	95.2

###

cell viability values for the compounds below.
System: MOLM14
Experiment: cell viability relative to vehicle control; higher = less cytotoxic
Settings: 10 µM; SRSF2 genotype: SRSF2 wt/wt
Counter-ions that a name gives are not always drawn.

compound	cell viability
NC(=O)[C@@H]1CC[C@@H]2CN1C(=O)N2OS(=O)(=O)O [Avibactam sodium]	111%
N#CC(=Cc1cn(-c2ccccc2)c2ccccc12)C(=O)O	97.2%
CN1CCN(C2=Nc3cc(Cl)ccc3Nc3ccccc32)CC1 [Clozapine (Clozaril)]	106%
O=C(O)c1cc(C(=O)O)c(C(=O)N(Cc2cccc(Oc3ccccc3)c2)[C@H]2CCCc3ccccc32)cc1C(=O)O	101%
COc1cc(Nc2c(C#N)cnc3cc(OCCCN4CCN(C)CC4)c(OC)cc23)c(Cl)cc1Cl [Bosutinib (SKI-606)]	11.1%
CNCC[C@H](Oc1cccc2ccccc12)c1cccs1 [Duloxetine HCl (Cymbalta)]	70.9%
C=C(C)[C@@H]1CC[C@]2(C=O)CC[C@]3(C)[C@H](CC[C@@H]4[C@@]5(C)CC[C@H](O)C(C)(C)[C@@H]5CC[C@]43C)[C@@H]12 [Betulinicaldehyde]	98%
N#CC1(c2ccc(NC(=O)c3cccnc3NCc3ccncc3)cc2)CCCC1 [Apatinib mesylate]	42.6%
O=c1c(-c2ccc(O[C@@H]3O[C@H](CO)[C@@H](O)[C@H](O)[C@H]3O)cc2)coc2cc(O)cc(O)c12 [Sophoricoside]	104%
CNC1CCCN(c2c(F)cc3c(=O)c(C(=O)O)cn(C4CC4)c3c2OC)C1 (stereo unspecified) [Balofloxacin]	109%
O=C(O)c1cc(O)ccc1O [Gentisic acid]	102%

The values you see were collected from the supplement of paper PMC10981050.
